Settings: in acetone, 293.15 K
Readout Name: solubility (mole fraction)
In your answer, state the number alone without any accompanying words.

Entry under review: Oc1ccc(C2(c3ccc(O)cc3)CCCCC2)cc1 . Reported solubility (mole fraction)?
0.0652

###

Settings: in n-propanol, 318.15 K
Readout Name: solubility (mole fraction)
Provide a numeric answer; units are not to be included.

Fill in the blank: the reported solubility (mole fraction) of Oc1ccc(C2(c3ccc(O)cc3)CCCCC2)cc1 is ____.
0.0896

###

Settings: in ethanol, 298.15 K
Readout Name: solubility (mole fraction)
Please reply with the number alone, leaving off any unit.

Please look up its solubility (mole fraction): Oc1ccc(C2(c3ccc(O)cc3)CCCCC2)cc1
0.0096

###

Settings: in isopropanol, 313.15 K
Readout Name: solubility (mole fraction)
The answer should be written as a number, with no unit following it.

Which solubility (mole fraction) is reported for this molecule? Oc1ccc(C2(c3ccc(O)cc3)CCCCC2)cc1
0.0134

###

Settings: in acetone, 318.15 K
Readout Name: solubility (mole fraction)
Answer with a number only.

Record request: solubility (mole fraction) value, item Oc1ccc(C2(c3ccc(O)cc3)CCCCC2)cc1
0.152

###

Settings: in n-butanol, 323.15 K
Readout Name: solubility (mole fraction)
Kindly provide the number alone.

What value of solubility (mole fraction) has been reported for the following molecule? Oc1ccc(C2(c3ccc(O)cc3)CCCCC2)cc1
0.0348

###

Settings: in isopropanol, 298.15 K
Readout Name: solubility (mole fraction)
Field format: numeric only.

Would you mind telling me what solubility (mole fraction) value was observed for Oc1ccc(C2(c3ccc(O)cc3)CCCCC2)cc1 ?
0.0066

###

Settings: in THF, 303.15 K
Readout Name: solubility (mole fraction)
Quick one: just the number, no unit, thanks!

Consider the compound shown here: Oc1ccc(C2(c3ccc(O)cc3)CCCCC2)cc1 What is its recorded solubility (mole fraction)?
0.221

###

Settings: in methanol, 288.15 K
Readout Name: solubility (mole fraction)

Need solubility (mole fraction), item Oc1ccc(C2(c3ccc(O)cc3)CCCCC2)cc1
0.012

###

Settings: in methanol, 323.15 K
Readout Name: solubility (mole fraction)
Quick one: just the number, no unit, thanks!

Look at this molecule and give its reported solubility (mole fraction). Oc1ccc(C2(c3ccc(O)cc3)CCCCC2)cc1
0.0547

###

Settings: in ethanol, 313.15 K
Readout Name: solubility (mole fraction)
Please state the value as a number alone, without comment.

I have this compound here, Oc1ccc(C2(c3ccc(O)cc3)CCCCC2)cc1 , and I need its recorded solubility (mole fraction).
0.0152

###

Settings: in methanol, 293.15 K
Readout Name: solubility (mole fraction)
The answer should be written as a number, with no unit following it.

Data request, read-out solubility (mole fraction), for Oc1ccc(C2(c3ccc(O)cc3)CCCCC2)cc1
0.0129

###

Settings: in n-propanol, 323.15 K
Readout Name: solubility (mole fraction)
Kindly provide the number alone.

Suppose we examine the molecule Oc1ccc(C2(c3ccc(O)cc3)CCCCC2)cc1 ; what solubility (mole fraction) value has been reported?
0.103

###

Settings: in 1,4-dioxane, 308.15 K
Readout Name: solubility (mole fraction)
Answer as a number with no unit attached.

Need solubility (mole fraction), item Oc1ccc(C2(c3ccc(O)cc3)CCCCC2)cc1
0.0866

###

Settings: in n-propanol, 303.15 K
Readout Name: solubility (mole fraction)

Fill blank: measured solubility (mole fraction) of the molecule Oc1ccc(C2(c3ccc(O)cc3)CCCCC2)cc1 is ____.
0.0563
